# Run Description: NCI Yeast Anticancer Drug Screen. Data for the mlh1 rad18 strain (AID 175)
# Condition Notes: S. cerevisiae mlh1 rad18 strain growth inhibition; at 5.0 µM (retest, dose inferred, filed as 0.5); hits give high values
The panel holds about 79,000 compounds, 15% with a hit somewhere; the sample as a whole holds those more often. Calls of active or inactive are those of the source. No stated cut-off is given here; in the data, active means growth inhibition above about 70%; inactive means the rest.

| Compound | growth inhibition |
| --- | --- |
| CC(=O)Oc1ccc(C(C)(C)CC(C)(C)C)cc1 | -1% (inactive) |
| CN(C)C1CCC2C(=C1OC(=O)c1ccccc1)C=Cc1ccccc12 (configuration not stated) | 21% (inactive) |
| CC(C)(C)C(OC(=O)Nc1ccccc1)C(C)(C)C | 9% (inactive) |
| CN(C)/C(N)=N\c1nc2ccc(Cl)cc2s1 | -3% (inactive) |
| CCCCCC(C)NCCOC(=O)c1ccccc1 (configuration not stated) | 18% (inactive) |
| COc1ccc2c(c1)CC1c3c(ccc(OC)c3O)CC2N1C (configuration not stated) | -55% (inactive) |
| C(=C/c1ccccc1)/C=N/Nc1ccccc1 | -107% (inactive) |
| Clc1ccc(SCCN2CCN(CCSc3ccc(Cl)cc3)CC2)cc1 | 88% (active) |
| CC[N+](CC)(CC)Cc1ccc(C[N+](CC)(CC)CC)cc1 | 2% (inactive) |
| Cc1ccc2[nH]c3cc4ccncc4cc3c2c1 | 40% (inactive) |
| O=C1C(Cl)=CC(=NCl)C=C1Cl | 28% (inactive) |
| C=CC1(C)CCC2C(=CCC3C2(C)CC(O)C(O)C3(C)COC2OC(CO)C(O)C(O)C2O)C1 (configuration not stated) | 0% (inactive) |

###

Listing of entries alongside the reported growth inhibition.
# Run Description: NCI Yeast Anticancer Drug Screen. Data for the cln2 rad14 strain (AID 165);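 further: 0% = growth equal to vehicle treated cultures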
# Condition Notes: S. cerevisiae cln2 rad14 strain, at 5.0 µM (retest, dose inferred, filed as 0.5), hits give high values
This is part of a sample that, as a whole, favours compounds with a hit. Of some 79,000 tested, about 15% had one in any assay.

| Compound | growth inhibition / % |
| --- | --- |
| O=C(O)c1c(Br)c(Br)c(Br)c(Br)c1-c1c2ccc(=O)cc-2oc2cc(O)ccc12 | 88 |
| C[Si](C)(C)CN1C(=O)c2ccccc2C1(O)c1ccccc1 (stereo not drawn) | -1 |
| CCCCCCCOC(=O)c1cc2cc(C(CC)C(CC)c3ccc(O)cc3)ccc2oc1=O (stereo not drawn) | 30 |
| CCC(=O)C(C(=O)CC)c1c(OC(=O)c2ccccc2)ccc(O)c1C(=O)OC | -5 |
| C=C1CC[C@@H](Br)C(C)(C)[C@]12CCC(C)(O)C(Cl)C2 (stereo partly drawn) | 31 |
| CCN1/C(=C/C(C)=C/c2sc3ccccc3[n+]2CC)Sc2ccccc21 | 97 |
| CSC(=Nc1ccccc1)/N=C(\SCc1ccccc1)N(C)C | 13 |
| Nc1ccc(O)c(=O)cc1 | -2 |
| O=[N+]([O-])c1ccc2c(c1)/C(=C/c1ccccc1O)c1ccccc1-2 | 52 |
| CCOc1ccc2c(c1)nc1cc(Cl)ccc1[n+]2C | 8 |
| Cc1cc(O)cc2c1c(=O)c1ccccc1n2C | 15 |
| Cc1[nH]nc(C(=O)N/N=C/c2cccs2)c1N=NN(C)C | -3 |
| COC(OC)(c1ccccc1)C(Br)Br | -7 |
| C1=C(c2ccccc2)[P+](c2ccccc2)(c2ccccc2)C=C(c2ccccc2)[P+]1(c1ccccc1)c1ccccc1 | 44 |
| CCN(CC)c1ccc(/C=C2/C[N+](C)(C)C/C(=C/c3ccc(N(CC)CC)cc3)C2=O)cc1 | 4 |
| Cc1cc(SCc2ccccc2)cc(C)[o+]1 | -1 |
| N#Cc1ccc([N+](=O)[O-])cc1C#N | -50 |
| OCC1OC(NC(=S)NCSCCC(F)(F)C(F)(F)C(F)(F)C(F)(F)C(F)(F)C(F)(F)F)C(O)C(O)C1O (stereo not drawn) | 22 |
| Cc1[nH]nc(C(=O)N(C)C)c1N=NN(C)C | -50 |
| O=C(c1ccc([N+](=O)[O-])cc1)C(Br)C(Br)c1ccnc2ccccc12 (stereo not drawn) | -1 |
| COc1cc2c(c(O)c1C)C(=O)C(Cl)=CC2=O | 98 |
| Cn1nc(N)c2cccnc21 | 3 |
| COc1ccc(C(c2ccc(OC)cc2)c2ccccc2C(=O)O)cc1 | 18 |
| c1ccc(COc2cccc3[nH]ccc23)cc1 | -7 |
| CCN(CC)C(C)(C)C(=O)/C=C/c1ccc(Cl)c(Cl)c1 | -8 |
| COC(=O)CCCCC(=O)N(C(C)C)C(C)C | -2 |
| CC(C)=CCC/C(C)=C/COc1ccc(/C=C2/C(=O)N(O)[C@@H](C)C(=O)N2O)cc1 | 54 |
| CCOC(=O)/C=C(\NC1CC(OC2C[C@](O)(C(C)=O)Cc3c(O)c4c(c(O)c32)C(=O)c2c(OC)cccc2C4=O)OC(C)C1O)C(=O)OCC (stereo partly drawn) | 44 |
| CC(=O)Nc1nnc(-c2coc3ccccc3c2=O)s1 | 9 |
| Cc1ccc(NC(=S)N(CCC#N)C2CCCCC2)cc1C | -2 |
| COc1ccc(C(=O)C(CN2CCOCC2)CN2CCOCC2)cc1 | 11 |
| O=[N+]([O-])c1cc(F)c(Sc2cc(Br)c([N+](=O)[O-])cc2F)cc1Br | 1 |
| Cc1ccc(S(=O)(=O)c2cc(O)c(O)c3ccc(Br)cc23)cc1 | -1 |
| Cc1ccc(OCC2CO2)c(Br)c1 (stereo not drawn) | 4 |
| CCN1CCC(O)(/C=C/c2cccc(C)c2)C(C(=O)/C=C/c2cccc(C)c2)C1 (stereo not drawn) | 91 |
| Cn1cc(NC(=O)c2cc(NC(=O)CCCCCCC(=O)Nc3cc(C(=O)Nc4cc(C(=O)NCCC(=N)N)n(C)c4)n(C)c3)cn2C)cc1C(=O)NCCC(=N)N | 44 |
| CC(C)(C)OC(=O)CSC#N | 8 |
| Cc1cccc2c(CC(=O)O)c[nH]c12 | 73 |
| O=C1OC2=C(CCc3nc(-c4ccccc4)sc32)C(N(c2ccccc2)c2ccccc2)C1(Cl)Cl (stereo not drawn) | -13 |
| COC1/C=C\OC2(C)Oc3c(C)c(O)c4c(c3C2=O)C2=NC(C)(C)N(c3ccccc3)C2=C(NC(=O)/C(C)=C\C=C\C(C)C(O)C(C)C(O)C(C)C(OC(C)=O)C1C)C4=O (stereo not drawn) | 2 |
| CCCC/C=C1\CCC(CN2CCCCC2)C1=O (stereo not drawn) | 59 |
| O=C1C(Cl)C(c2cc(Br)cc(Br)c2O)N1n1cnc2ccccc2c1=O (stereo not drawn) | -16 |
| CCN(CC)c1cc(Nc2c3ccc(Cl)cc3nc3cc(Cl)ccc23)ccc1O | -6 |

###

Each entry below carries its recorded growth inhibition.
# Run Description: NCI Yeast Anticancer Drug Screen. Data for the rad50 strain (AID 155);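 further: 0% = growth of vehicle-only cultures of the same strain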
# Condition Notes: S. cerevisiae rad50 strain growth inhibition; at 5.0 µM (retest, dose inferred, filed as 0.5); hits give high values
Compounds without any hit were thinned out: in the full panel of roughly 79,000, 15% have a hit.

| Compound | growth inhibition (%) |
| --- | --- |
| O=C(Nc1nc2ccc([N+](=O)[O-])cc2s1)C(=O)C(C1OC(=O)c2ccccc21)[N+](=O)[O-] (stereo unspecified) | 8 |
| Cc1ccc(S(=O)(=O)/C=C/C(=O)c2ccc3ccccc3c2)cc1 | 83 |
| CC(C)c1cc(O)c2c(c1O)C1CC3C(C)(C)CCC[C@]23C(=O)O1 (stereo partly specified) | 1 |
| O=C(O)c1ccccc1SC(Sc1ccccc1C(=O)O)c1cccc(Cl)c1 | 8 |
| O=C1CSC2(CCN(CCCN3c4ccccc4Sc4ccc(Cl)cc43)CC2)N1 | 8 |
| Nc1ccccc1/C=C1/Sc2cc[nH]c2C1=O | 2 |
| O=C(CCBr)NC(=O)Oc1cccc2ccccc12 | 1 |
| Cc1nn(C(=O)c2ccncc2)c(C)c1N=Nc1ccccc1[N+](=O)[O-] | 49 |
| C[N+]1(C)C/C(=C\C=C\c2ccccc2)C(=O)/C(=C/C=C/c2ccccc2)C1 | 17 |
| CCCCCOCC(=O)OC | -1 |
| O=C(O)c1ccccc1N=N/C(=N\Nc1cc(S(=O)(=O)O)ccc1O)c1ccccc1 | -7 |
| Oc1[nH]c2ccccc2c1N=NC(=S)N1CCCC1 | 15 |
| CS(=O)(=O)OCCN(CCOS(C)(=O)=O)c1ccc(C=Nc2ccc3oc(=O)ccc3c2)cc1 | 32 |
| CN(C)C(=S)SC1(CN2CCOCC2)COc2c(Cl)cc(Cl)cc2C1=O (stereo unspecified) | 1 |
| CC(=O)Oc1ccc(/C=C/c2ccncc2)cc1 | -164 |
| O=C(O)c1cc2c(cc1CC(Cc1ccc3c(c1)CCCC3)C(=O)O)CCCC2 (stereo unspecified) | 20 |
| CCCCN(CCCC)/N=C\C1=C2NC(=O)/C(C)=C\C=C/C(OC)C(OC(N)=O)/C(C)=C/C(C)C(O)C(OC)CC(C)CC(=C(OC)C1=O)C2=O (stereo unspecified) | 2 |
| CC(=O)N1C(c2[nH]c3ccccc3c2-c2ccccc2)CCN1c1ccccc1 (stereo unspecified) | -12 |
| Cc1noc(NS(=O)(=O)c2ccc(NC(=S)/N=C/c3c(O)[nH]c(=O)[nH]c3=O)cc2)c1C | -1 |
| COC(=O)/C=C1/OC(c2ccccc2)=C(Br)C1=O | 17 |
| c1ccc2c(CCc3ccncc3)c[nH]c2c1 | 2 |
